- Experiment: Selectivity ratio of IC50 for human HFF to IC50 for human HepG2 cells
- Format: toxicity
- Conditions Used: HFF cells versus HepG2 cells, read-out: Ratio IC50
Measure: selectivity ratio

GET /value?item= `COc1cc(OC)c(C(=O)/C=C/c2ccc(Br)cc2)c(OCC=C(C)C)c1` &field=selectivity ratio returns 3

====

- System: A-375
- Experiment: Antiproliferative activity against human A375 cells after 48 hrs by SRB assay
- Format: functional, cell-based
- Conditions Used: A-375, 48 h
Measure: pIC50
On this scale, pIC50 is minus log10 of a concentration expressed in M (mol/L).

# lookup: `COc1cc(OC)c(C(=O)/C=C/c2ccc(Br)cc2)c(OCC=C(C)C)c1` on A-375, pIC50 = 5.80

Value source: ChEMBL document CHEMBL4152340
